Target: T1, human ACVR2A (human, UniProt P27037 20-135, limits assumed); note: test concentration or dose not given here
T1 construct: also called activin receptor, type II A
T1 sequence (P27037 20-135 limits assumed): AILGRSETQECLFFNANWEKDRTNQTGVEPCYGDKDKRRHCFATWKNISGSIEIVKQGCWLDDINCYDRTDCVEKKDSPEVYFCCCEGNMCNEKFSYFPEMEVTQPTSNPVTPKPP
Assay: ELISA
measurement_kind: optical density (OD)
The reply should contain only the number, in OD.

binder: 367_F08 (antibody, V domains shown, Group II) VH: EVQLLESGGGLVQPGGSLRLSCAASGFTFSSYGMHWVRQAPGKGLEWVSSINYNSGYTSYADSVKGRFTISRDNSKNTLYLQMNSLRAEDTAVYYCARAATWHDTHLDYWGQGTLVTVSS VL: DIQMTQSPSSLSASVGDRVTITCRASQSILSYVNWYQQKPGKAPKLVIYAATSRASGVPSRFSGSGSGTDFTLTISSLQPEDFATYYCQQSNELPLTFGGGTKVEIK
optical density / OD: 2.08
//
binder: 366_G02 (antibody, V domains shown, Group II) VH: EVQLLESGGGLVQPGGSLRLSCAASGFTFDSYGMHWVRQAPGKGLEWVSSINYNGGYTSYADSVKGRFTISRDNSKNTLYLQMNSLRAEDTAVYYCARAATWHDTHLDYWGQGTLVTVSS VL: DIQMTQSPSSLSASVGDRVTITCRASQSILTYLNWYQQKPGKAPKLLIYAATSRHSGVPSRFSGSGSGTDFTLTISSLQPEDFATYYCQQSDDNPLTFGGGTKVEIK
optical density / OD: 2.16
//
binder: 369_B07 (antibody, V domains shown, Group II) VH: EVQLLESGGGLVQPGGSLRLSCAASGFTFDSYGMHWVRQAPGKGLEWVANINYNGGYKSYADSVKGRFTISRDNSKNTLYLQMNSLRAEDTAVYYCARAATWHDTHLDYWGQGTLVTVSS VL: DIQMTQSPSSLSASVGDRVTITCRASQSIVSYVNWYQQKPGKAPKLVIYAATSLASGVPSRFSGSGSGTDFTLTISSLQPEDFATYYCQQSYDLPLTFGGGTKVEIK
optical density / OD: 2.63
//
binder: 371_B11 (antibody, V domains shown, Group II) VH: EVQLLESGGGLVQPGGSLRLSCAASGFTFSSYSMHWVRQAPGKGLEWVASINYNSGYTSYADSVKGRFTISRDNSKNTLYLQMNSLRAEDTAVYYCARAATWHDTHLDYWGQGTLVTVSS VL: DIQMTQSPSSLSASVGDRVTITCRASQSILTYLNWYQQKPGKAPKLLIYAATSRASGVPSRFSGSGSGTDFTLTISSLQPEDFATYYCQQSYELPLTFGGGTKVEIK
optical density / OD: 3.18

Query binder follows.
Provide only the value of recorded optical density for 368_B08 (antibody, V domains shown, Group I) VH: EVQLLESGGGLVQPGGSLRLSCAASGFTFDSYGMNWVRQAPGKGLEWVSSINYNGGYTSYADSVKGRFTISRDNSKNTLYLQMNSLRAEDTAVYYCARAANWHDTHLDYWGQGTLVTVSS VL: DIQMTQSPSSLSASVGDRVTITCRASQSILTYVNWYQQKPGKAPKLVIYAATSRASGVPSRFSGSGSGTDFTLTISSLQPEDFATYYCQQSYENPLTFGGGTKVEIK 1.98

Source of measurements: patent US20210380703A1
